# maps each entry to its koff
- target or system: SARS-CoV-2 spike protein (SARS-CoV-2, UniProt P0DTC2 14-1208)
metric name: koff (s⁻¹)

1) antibody 448 (antibody, V domains shown) VH: QVQLVQSGAEVKKPGASVKVSCKASGYTFTSYGISWVRQAPGQGLEWMGWISAYNGNTNYAQKLQGRVTMTTDTSTSTAYMELRSLRSDDTAVYYCAIELLEGFYYYYGMDVWGQGTTVTVSS VL: SYELTQPPSVSVSPGQTARITCSGDALPKQYAYWYQQKPGQAPVLVIYKDSERPSGIPERFSGSSSGTTVTLTISGVQAEDEADYYCQSADSSGTYPYVVFGGGTKLTVL :: 0.000692
2) antibody 453 (antibody, V domains shown) VH: QVQLVESGGGVVQPGRSLRLSCAASGFTFSSYAMYWVRQAPGKGLEWVAVISYDGSNKYYADSVKGRFTISRDNSKNTLYLQMNSLRAEDTAVYYCARDRPHYYGSGRKILNLYGMDVWGQGTTVTVSS VL: DIQLTQSPSFLSASVGDRVTITCRASQGISSYLAWYQQKPGKAPKLLIYAASTLQSGVPSSFSGSGSGTEFTLTISSLQPEDFATYYCQQLNSYPPFTFGPGTKVDIK :: 0.000154
3) antibody 440 (antibody, V domains shown) VH: EVQLLESGGGLVQPGGSLRLSCAASGFTFSSYAMSWVRQAPGKGLEWVSAISGSGVNTYHADSVKGRFTISRDNSRNTLYLQMSSLTAEDTAAYYCAKDFEAASGAYYYYGMDVWGQGTTVTVSS VL: SYELTQPPSVSVSPGQTARITCSGDALPDQYAYWYQQKPGQAPVVVIYKDRERPSGIPERFSGSNSGTTVTLTISGVQAEDEADYYCQSADSSATYVVFGGGTKLTVL :: 0.000291
